- method-description: Quantitative highthroughput screen to assess conditional lethalithy of P12 Ichikawa cells grown in Human Plasma-Like Medium with dialyzed fetal bovine serum (HPLM+ds) (AID 1963879); note: nearly all actives have a fitted effect of over 35% in size
- applied-conditions: ATP luminescence, 48 h; viability; series mostly up to 45.8 µM
Records with an inconclusive call do not appear. Active and inactive are the calls of the source. Calls come from the whole dose curve; as a rule, active = well fitted cell-killing curve with a large enough effect; inconclusive = small, poorly fitted or top-dose-only effect; inactive = flat fitted curve, though single readings scatter.
Your answer must be one of the following: active, inactive

> print(dat)
                                   compound  answer.label
1  Cc1c(C)c2c(c(C)c1O)CCC(C)(COc1ccc(CC3SC(=O)NC3=O)cc1)O2 (stereo unspecified)      inactive
2  O=c1cc(N2CCOCC2)oc2c(-c3cccc4c3sc3ccccc34)cccc12      inactive

Moving on to another compound below.
Query: # outcome recorded in this test, key = CC(C)c1onc(-c2c(Cl)cccc2Cl)c1COc1ccc(C=Cc2cccc(C(=O)O)c2)c(Cl)c1
Response: inactive

====

- method-description: Cellular viability qHTS for adrenocortical cancer (ACC) cell line SW-13 (AID 1963989); note: potency is the fitted concentration of half-maximal effect; nearly all actives have a fitted effect of over 65% in size
- applied-conditions: SW-13 ACC cells viability, CellTiter-Glo, 48 h
Results filed as inconclusive are left out. The source made the active and inactive calls. Calls come from the whole dose curve; as a rule, active = well fitted cell-killing curve with a large enough effect; inconclusive = small, poorly fitted or top-dose-only effect; inactive = flat fitted curve, though single readings scatter.
# key: entry, value: Potency

Solved entries (count: 5):
> print(dat)
                                   compound  attribute.measured    measured.result
1  CC[C@@H](C)Nc1cc(C(=O)NC2CC3CCC(C2)N3c2ccc(C(=O)C3CC3)cn2)c(C)cc1C(N)=O (some centres undefined)             Potency  0.355 µM (active)
2  CN(C)C/C=C/C(=O)Nc1cc2c(Nc3ccc(F)c(Cl)c3)ncnc2cc1O[C@H]1CCOC1             Potency  0.891 µM (active)
3  CN1CCC(Nc2ncc3ncnc(Nc4ccc(F)c(Cl)c4)c3n2)CC1             Potency   18.4 µM (active)
4  C=CC(=O)Nc1cccc(Sc2nc(Nc3ccc(N4CCN(C)CC4)cc3)ncc2Cl)c1             Potency      2 µM (active)
5  Nc1ncccc1-c1nc2ccc(-c3ccccc3)nc2n1-c1ccc(C2(N)CCC2)cc1             Potency   25.1 µM (active)

Query: Entry under review: C[C@@H](O[C@H]1OCCN(Cc2n[nH]c(=O)[nH]2)[C@@H]1c1ccc(F)cc1)c1cc(C(F)(F)F)cc(C(F)(F)F)c1 . Reported Potency?
Response: 22.4 µM (active)

Query: Need Potency, item CCCCCCCCc1ccc(CCC(N)(CO)CO)cc1
Response: 17.8 µM (active)

Query: Any idea what Potency was measured for CC1=C(/C=C/C(C)=C/C=C/C(C)=C/C(=O)Nc2ccc(O)cc2)C(C)(C)CCC1 ?
Response: 1.84 µM (active)

Query: Query (compound): COCc1c(C(C)C)nc(C(C)C)c(/C=C/[C@@H](O)C[C@@H](O)CC(=O)O)c1-c1ccc(F)cc1 ; field requested: Potency
Response: 2.59 µM (active)

====

- method-description: Viability qHTS for spleen associated tyrosine kinase inhibitor (SYKi) drug resistant MV4-11 cells (AID 1963824); note: nearly all actives have a fitted effect of over 35% in size; note: potency is the fitted concentration of half-maximal effect
- applied-conditions: SYKi-resistant MV4-11 viability, CellTiter-Glo, 72 h; series mostly up to 45 µM
Inconclusive results are not listed. Active and inactive are the calls of the source. Calls come from the whole dose curve; as a rule, active = well fitted cell-killing curve with a large enough effect; inconclusive = small, poorly fitted or top-dose-only effect, or effect the other way; inactive = no such curve, though single readings can be large or run the other way.
attribute-measured: Potency

Consider the reported Potency for these compounds:
compound	Potency
CC1=C(C)C(=O)OC(C(C)C2CCC3C4C5OC5C5(O)CC(OC6OC(CO)C(OC7OC(C)C(O)C(O)C7O)C(O)C6O)CC(O)C5(C)C4CCC23C)C1 (centres undefined)	inactive
COC(=O)/C=C/C(=O)OC	inactive
Nc1ccc(C(=O)N2CC3CC(CN(Cc4ccccc4)C3)C2)cc1	inactive
NC(=Nc1ccccc1)Nc1ccccc1	34400 nM (active)
CNC(=O)Cn1cc(-c2ccc3c(c2)C(F)CC32NC(=O)N(CC(=O)N(Cc3ccc(F)cc3)[C@@H](C)C(F)(F)F)C2=O)cn1 (some centres undefined)	132 nM (active)

Query: Entry under review: N#Cc1cc(NC(=O)Nc2nnc(-c3ccncc3)s2)ccc1-c1cn[nH]c1 . Reported Potency?
Response: inactive

Query: Look at this compound and give its reported Potency. COc1nc(N)nc2c1ncn2[C@@H]1O[C@H](CO)[C@@H](O)[C@@H]1O
Response: inactive

Query: Item COc1ccc(N2CCN(C(=O)c3cc4c(s3)-c3ccccc3S(=O)(=O)C4)CC2)cc1 has what recorded Potency?
Response: inactive

Query: Could you share which Potency value was measured for C=CC(=O)N1CCc2ccc(-n3c(=O)ccc4cnc5ccc(-c6cnn(C)c6)cc5c43)cc21 ?
Response: 91 nM (active)

Provenance of the data: PubChem BioAssay (NCATS)
